# System: Aerobactin synthetase IucA (Klebsiella pneumoniae hvKP1)
# testDescription: Biochemical IucA enzyme inhibition primary screen of the Spectrum library (AID 1346200);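 note: 100% = wells without compound and 0% = wells lacking enzyme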
# assayConditions: malachite green pyrophosphate, A620, at 8 µM, stronger effect = lower value
measuredAttribute: activity remaining (%)
Please give a number only; it is taken to be in %.

| compound | assaySystem | activity remaining [%] |
| --- | --- | --- |
| NC[C@H](O)c1ccc(O)c(O)c1 | Aerobactin synthetase IucA (Klebsiella pneumoniae hvKP1) | 107 |
| CC[N+]1(C)CCCC(OC(=O)C(O)(c2ccccc2)c2ccccc2)C1 (stereo unspecified) | Aerobactin synthetase IucA (Klebsiella pneumoniae hvKP1) | 116 |
| c1ccc2c(c1)sc1ccccc12 | Aerobactin synthetase IucA (Klebsiella pneumoniae hvKP1) | 113 |
| CN1CCC(=C2c3ccccc3Sc3ccccc32)CC1 | Aerobactin synthetase IucA (Klebsiella pneumoniae hvKP1) | 119 |
| O=C1CC(c2ccc(O)c(O)c2)Oc2cc(O)cc(O)c21 (stereo unspecified) | Aerobactin synthetase IucA (Klebsiella pneumoniae hvKP1) | 109 |

# query: activity remaining of entry "COc1ccc(C[C@H]2NC[C@H](O)[C@H]2OC(C)=O)cc1"
92.2
